Biological target: T1, GPR10 (UniProt P49683 1-370, limits assumed)
T1 sequence (looked up): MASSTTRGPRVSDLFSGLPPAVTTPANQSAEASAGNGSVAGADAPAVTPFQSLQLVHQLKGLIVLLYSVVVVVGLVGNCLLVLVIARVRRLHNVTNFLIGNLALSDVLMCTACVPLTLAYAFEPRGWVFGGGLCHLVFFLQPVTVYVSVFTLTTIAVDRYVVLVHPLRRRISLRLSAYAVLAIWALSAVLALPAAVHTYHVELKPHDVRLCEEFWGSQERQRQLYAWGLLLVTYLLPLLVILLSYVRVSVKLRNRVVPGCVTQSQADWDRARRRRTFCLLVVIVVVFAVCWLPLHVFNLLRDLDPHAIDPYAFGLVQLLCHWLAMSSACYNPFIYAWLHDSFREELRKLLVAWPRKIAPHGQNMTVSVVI
Assay: cell-based or functional assay
Bridges are numbered along the chain shown (N, C = ends). Where no end group is shown, it is not given here. [ ]: non-standard residue; d: D form. NMeR = CN[C@@H](CCCNC(=N)N)C(=O)O; hArg = N=C(N)NCCCC[C@H](N)C(=O)O; β3hR = N=C(N)NCCC[C@H](N)CC(=O)O; Nle = CCCC[C@H](N)C(=O)O; L1 = not defined here; L3 = not defined here; L5 = not defined here
READOUT TYPE: GPR10 EC50 (nM)
The answer is to be given in nM; state only the numeric part.

Answered examples (6):
Look up and report measured GPR10 EC50 for this entry: SRAHQCS[Nle]ETRTCDINPAWYTG[NMeR]GIRPVGRF-NH2 (cysteine pairing not given here) [SEQ ID NO 99]
44

Output measured GPR10 EC50 for this item: SRAHQCS[Nle]ETRTCDINPAWYTGRGIRPVG[NMeR]F-NH2 (linker 6-13 via L3; reading uncertain) [Conjugate 258]
10

Identify measured GPR10 EC50 associated with SRAHQCSMETRTCDINPAWYTGRGIRPVGRF-NH2 (cysteine pairing not given here) [SEQ ID NO 90]
29

Tell me measured GPR10 EC50 for SRAHQCS[Nle]ETRTCDINPAWYTG[hArg]GIRPVGRF-NH2 (cysteine pairing not given here) [SEQ ID NO 97] please.
17

Identify measured GPR10 EC50 associated with SRAHQCS[Nle]ETRTCDINPAWYTG[NMeR]GIRPVGRF-NH2 (linker 6-13 via L1; reading uncertain) [Conjugate 253]
34

Report GPR10 EC50 for SRAHQCSMETRTCDINPAWYTGRGIRPVGRF-NH2 (linker 6-13 via L3; reading uncertain) [Conjugate 236]
13

Others:
Entry SRAHQCS[Nle]ETRTCDINPAWYTG[hArg]GIRPVGRF-NH2 (linker 6-13 via L1; reading uncertain) [Conjugate 251] needs its GPR10 EC50 filled in; supply it.
10

Please indicate GPR10 EC50 recorded for SRAHQCS[Nle]ETRTCDINPAWYTGRGIRPVG[NMeR]F-NH2 (linker 6-13 via L5; reading uncertain) [Conjugate 266]
1100

Give the reported GPR10 EC50 for this binder. SRAHQCS[Nle]ETRTCDINPAWYTG[β3hR]GIRPVGRF-NH2 (linker 6-13 via L3; reading uncertain) [Conjugate 256]
5.1

Entry SRAHQCS[Nle]ETRTCDINPAWYTGRGIRPVG[NMeR]F-NH2 (linker 6-13 via L1; reading uncertain) [Conjugate 254] needs its GPR10 EC50 filled in; supply it.
100
